The reported measurements were obtained from patent US9359308B2.

experimental-system: full length active recombinant SYK enzyme (Homo sapiens, UniProt P43405)
Construct: full length active recombinant SYK enzyme (Millipore, Calif.)
procedure-summary: Inhibition of Syk tyrosine phosphorylation activity (LANCE TR-FRET kinase assay)
cond: activity in the Syk assays, class symbols
readout-name: IC50

Give the measured IC50 of `CC[C@@H](Nc1cnc(C(N)=O)c(Nc2ccc(C3CC3)nc2)n1)C(N)=O` .
0.01 to 0.1 µM

Give the measured IC50 of `CC(C)[C@@H](Nc1cnc(C(N)=O)c(Nc2cnc3ccc(F)cc3c2)n1)C(N)=O` .
0.001 to 0.01 µM

Give the measured IC50 of `NC(=O)c1ncc(N[C@@H]2CCCC(F)(F)[C@@H]2N)nc1Nc1cnc2cc(F)ccc2c1` .
0.01 to 0.1 µM

Give the measured IC50 of `NC(=O)c1ncc(N[C@@H]2CCNC2)nc1Nc1cccc(-n2nccn2)c1` .
0.001 to 0.01 µM

Give the measured IC50 of `NC(=O)c1ncc(N[C@@H]2CCCC[C@@H]2N)nc1Nc1cccnc1` .
< 0.001 µM

Give the measured IC50 of `Cc1cc(Nc2nc(N[C@@H]3CCCC[C@@H]3N)cnc2C(N)=O)ccc1N1CCOCC1` .
0.001 to 0.01 µM

Give the measured IC50 of `NC(=O)c1ncc(NC2(C(N)=O)CC2)nc1Nc1cnc2ccccc2c1` .
0.01 to 0.1 µM

Give the measured IC50 of `CC(C)[C@@H](Nc1cnc(C(N)=O)c(Nc2ccc(S(C)(=O)=O)cc2)n1)C(N)=O` .
0.01 to 0.1 µM

###

experimental-system: full length active recombinant SYK enzyme (Homo sapiens, UniProt P43405)
Construct: full length active recombinant SYK enzyme (Millipore, Calif.)
procedure-summary: Inhibition of Syk tyrosine phosphorylation activity (LANCE TR-FRET kinase assay)
cond: activity in the Syk assays, class symbols
readout-name: IC50

structure_smiles=Cc1cc(Nc2nc(N[C@@H](C(N)=O)c3ccccc3)cnc2C(N)=O)sn1 experimental_system="full length active recombinant SYK enzyme (Homo sapiens, UniProt P43405)" readout_name=IC50 value_observed="1 to 10 nM"
structure_smiles=CC[C@@H](Nc1cnc(C(N)=O)c(Nc2ccc(-c3ncco3)cc2)n1)C(N)=O experimental_system="full length active recombinant SYK enzyme (Homo sapiens, UniProt P43405)" readout_name=IC50 value_observed="1 to 10 nM"
structure_smiles=Cc1cc(Nc2nc(N[C@H](CC3CC3)C(N)=O)c(Cl)nc2C(N)=O)sn1 experimental_system="full length active recombinant SYK enzyme (Homo sapiens, UniProt P43405)" readout_name=IC50 value_observed="10 to 100 nM"

Pending molecule:
Give the measured IC50 of `CC[C@@H](Nc1cnc(C(N)=O)c(Nc2cnc3ccc(F)cc3c2)n1)C(N)=O` .
1 to 10 nM

###

experimental-system: full length active recombinant SYK enzyme (Homo sapiens)
Construct: full length active recombinant SYK enzyme (Millipore, Calif.)
procedure-summary: Inhibition of Syk tyrosine phosphorylation activity (LANCE TR-FRET kinase assay)
cond: activity in the Syk assays, class symbols
pIC50: −log10 of the molar value.
readout-name: pIC50

These recorded examples may help you get a feel for the data.
molecule="NC(=O)c1ncc(N[C@H]2CC[C@@H](N)CC2)nc1Nc1cnc2ccccc2c1 [Example 185]" readout_name=pIC50 value_observed="7.00 to 8.00"
molecule="COc1ccc(Nc2nc(N[C@H](CC(C)C)C(N)=O)cnc2C(N)=O)cn1 [Example 312]" readout_name=pIC50 value_observed="8.00 to 9.00"
molecule="Cc1cc(Nc2nc(N[C@@H]3CCOC[C@@H]3N)cnc2C(N)=O)sn1 [Example 408]" readout_name=pIC50 value_observed="8.00 to 9.00"

Pending molecule:
Give the measured pIC50 of NC(=O)c1ncc(N[C@@H]2CCCC(F)(F)[C@@H]2N)nc1Nc1ccc2ncncc2c1 [Example 405] .
8.00 to 9.00
